These measurements were taken from ChEMBL document CHEMBL1147762.

assay: Tmax in rat; assay type: ADME, organism-based; details: Sprague-Dawley, in vivo
experimental endpoint: Tmax (min)

>>> test_result("CN1C(=O)C(C(=O)Nc2nncs2)c2cc3occc3cc21 (stereo unspecified)")
48

---

biological target: High affinity cAMP-specific and IBMX-insensitive 3',5'-cyclic phosphodiesterase 8A (Homo sapiens, UniProt O60658)
Sequence (O60658 whole entry): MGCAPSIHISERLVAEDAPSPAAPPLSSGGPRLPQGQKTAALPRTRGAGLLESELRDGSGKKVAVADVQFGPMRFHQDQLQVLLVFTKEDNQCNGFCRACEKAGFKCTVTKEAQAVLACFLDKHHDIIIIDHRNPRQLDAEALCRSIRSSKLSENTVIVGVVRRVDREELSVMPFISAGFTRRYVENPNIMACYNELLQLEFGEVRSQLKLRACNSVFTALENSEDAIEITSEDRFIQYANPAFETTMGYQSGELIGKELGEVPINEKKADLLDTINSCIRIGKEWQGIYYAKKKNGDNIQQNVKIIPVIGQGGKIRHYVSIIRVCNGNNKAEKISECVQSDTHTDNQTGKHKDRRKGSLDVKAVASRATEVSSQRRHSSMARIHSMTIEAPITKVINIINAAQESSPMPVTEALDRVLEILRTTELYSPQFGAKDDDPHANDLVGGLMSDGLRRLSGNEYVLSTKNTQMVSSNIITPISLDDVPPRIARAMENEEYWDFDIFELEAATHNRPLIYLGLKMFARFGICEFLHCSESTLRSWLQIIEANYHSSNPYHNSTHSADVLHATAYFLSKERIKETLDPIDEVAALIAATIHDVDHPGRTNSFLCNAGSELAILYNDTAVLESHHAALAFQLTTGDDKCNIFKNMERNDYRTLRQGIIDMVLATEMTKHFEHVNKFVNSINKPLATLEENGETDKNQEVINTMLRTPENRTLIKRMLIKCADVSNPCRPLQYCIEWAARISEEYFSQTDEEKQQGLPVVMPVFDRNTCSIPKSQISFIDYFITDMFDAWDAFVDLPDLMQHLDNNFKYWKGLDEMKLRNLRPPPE
experimental endpoint: IC50

>>> test_result("CN1C(=O)C(C(=O)Nc2nncs2)c2cc3occc3cc21 (configuration not stated)")
"> 16 µM"
>>> test_result("CCCCCC[C@H]([C@H](C)O)n1cnc2c(N)ncnc21 [(+)-EHNA]")
"> 16 µM"

---

assay: Apical cell permeability in parental MDCK cells
experimental endpoint: Papp (×10⁻⁶ cm/s)

>>> test_result("CN1C(=O)C(C(=O)Nc2nncs2)c2cc3occc3cc21 (stereo unspecified)")
3
